Every entry's value here was drawn from paper PMC4243878.

# Format: in vivo, human
# protocolConditions: both, human, plasma, oral, t1/2, Cohort 2, dolutegravir 50 mg once daily + telaprevir 750 mg every 8 h, Period 2 (n = 14); geometric mean (95% CI)
metric: half-life (h)
Please state the figure in h; there is no need to write the unit.

Q: I would be grateful if you could share the reported half-life for C[C@@H]1CCO[C@H]2Cn3cc(C(=O)NCc4ccc(F)cc4F)c(=O)c(O)c3C(=O)N12 [Dolutegravir] .
Ans: 16.7

* * *

# Assay type: in vivo, human
# protocolConditions: both, human, plasma, oral, Cmax, Cohort 1, dolutegravir 50 mg once daily + boceprevir 800 mg every 8 h, Period 2 (n = 13); geometric mean (95% CI)
metric: Cmax (ng/mL)
Please state the figure in ng/mL; there is no need to write the unit.

Q: I would be grateful if you could share the reported Cmax for C[C@@H]1CCO[C@H]2Cn3cc(C(=O)NCc4ccc(F)cc4F)c(=O)c(O)c3C(=O)N12 [Dolutegravir] .
Ans: 4820
